System: HT-1080 cells expressing IDH1R132C
protocol-description: 2-HG production inhibitory activity using HT1080 cell
Format: cell-based, human
run-conditions: Homo sapiens, HT-1080; 2-HG production, HT1080 cells; read-out: Test Example 3 IC50
Checkbox rule: IC50 lower than 60 nM = 1.0; IC50 not lower than 60 nM = 0.0.

>>> class_label("CNC1(c2onc(-c3c(Cl)cc(Cl)cc3Cl)c2C(=O)n2cc3c4c(cccc42)/C(=C/C(=O)O)CC3)CC1 [Example 86]")
1.0

Exercise: IC50 under 60 nM? Item: C=CC(=O)N1CCC(c2onc(-c3c(Cl)cc(Cl)cc3Cl)c2C(=O)n2cc(C)c3c(CCC(=O)O)cccc32)CC1 [Example 115]
Key: 1.0

Exercise: IC50 under 60 nM? Item: CN(C)c1onc(-c2c(Cl)cccc2Cl)c1C(=O)n1ccc2c(/C=C/C(=O)O)cccc21 [Example 133]
Key: 0.0

Exercise: IC50 under 60 nM? Item: Cc1cc(Cl)cc(C)c1-c1noc(C(C)(C)F)c1C(=O)n1cc(C)c2c(/C=C/C(=O)O)cccc21 [Example 55]
Key: 0.0

Exercise: IC50 under 60 nM? Item: C=CC(=O)N1CC2(CC2)N(c2onc(-c3c(F)cccc3Cl)c2C(=O)n2cc(C)c3c(/C=C/C(=O)O)cccc32)C[C@H]1C [Example 162]
Key: 0.0

Exercise: IC50 under 60 nM? Item: Cc1cn(C(=O)c2c(-c3ccc(Cl)cc3Cl)noc2C(C)(C)F)c2cccc(/C=C/C(=O)O)c12 [Example 62]
Key: 0.0

====

System: HT-1080 cells expressing IDH1R132C
protocol-description: 2-HG production inhibitory activity using HT1080 cell
Type: cell-based, human
run-conditions: Homo sapiens, HT-1080; 2-HG production, HT1080 cells; read-out: Test Example 3 IC50
pIC50: −log10 of the molar value.
pIC50 of 7 or higher: criterion met. Under 7: criterion not met.

Sample answers from the record:
>>> class_label("C=CC(=O)N1CC2(CC2)N(c2onc(-c3c(Cl)cccc3Cl)c2C(=O)n2ccc3c(/C=C/C(=O)O)cccc32)C[C@H]1C")
"criterion met"
>>> class_label("C=CC(=O)N1CCC(c2onc(-c3c(Cl)cc(F)cc3Cl)c2C(=O)n2cc(C)c3c(/C=C/C(=O)O)cccc32)CC1")
"criterion met"
>>> class_label("C=CC(=O)N1CCC(c2onc(-c3cc(F)c(Cl)cc3Cl)c2C(=O)n2cc3c4c(cccc42)/C(=C/C(=O)O)CC3)CC1")
"criterion met"
>>> class_label("C=CC(=O)N1CCN(c2onc(-c3c(Cl)cccc3Cl)c2C(=O)n2ccc3c(/C=C/C(=O)O)cccc32)[C@@H](C)C1")
"criterion not met"

Turning now to a further compound:
Exercise: Does the compound `C=CC(=O)N1CCC(c2onc(-c3c(Cl)cc(Cl)cc3Cl)c2C(=O)n2cc(C)c3c(/C=C/C(=O)O)cccc32)(N(C)C)CC1` have recorded pIC50 that is 7 or more?
Key: criterion met

====

Here the recorded pIC50 is given for each entry.
System: HT-1080 cells expressing IDH1R132C
protocol-description: 2-HG production inhibitory activity using HT1080 cell
Format: cell-based, human
run-conditions: Homo sapiens, HT-1080; 2-HG production, HT1080 cells; read-out: Test Example 3 IC50
Convention used: pIC50 is expressed as -log10 of the molar concentration.

Example results:
>>> quantitative_result("C=CC(=O)N1CCN(c2onc(-c3c(Cl)cc(Cl)cc3Cl)c2C(=O)n2ccc3c(/C=C/C(=O)O)cccc32)CC1 [Example 143]")
6.83
>>> quantitative_result("C=CC(=O)N1CCN(c2onc(-c3c(Cl)cccc3Cl)c2C(=O)n2ccc3c(/C=C/C(=O)O)cccc32)C(C)(C)C1 [Example 153]")
6.78
>>> quantitative_result("C=CC(=O)N1CCN(c2onc(-c3c(Cl)cccc3Cl)c2C(=O)n2ccc3c(/C=C/C(=O)O)cccc32)[C@H](C)C1 [Example 141]")
6.72
>>> quantitative_result("CC(C)c1onc(-c2c(Cl)cccc2Cl)c1C(=O)n1ccc2c(/C=C/C(=O)O)cccc21 [Example 23]")
6.15
>>> quantitative_result("CC(C)c1onc(-c2c(Cl)ccc(F)c2Cl)c1C(=O)n1ccc2c(/C=C/C(=O)O)cccc21 [Example 28]")
6.40

Exercise: Field request: pIC50 | item: COC1(c2onc(-c3c(Cl)cccc3Cl)c2C(=O)n2ccc3c(/C=C/C(=O)O)cccc32)COC1 [Example 76]
Key: 6.93

Exercise: Field request: pIC50 | item: CCN(CC)c1onc(-c2c(Cl)cccc2Cl)c1C(=O)n1ccc2c(/C=C/C(=O)O)cccc21 [Example 134]
Key: 6.46
